Tgt: human adenosine A2A receptor (Homo sapiens, UniProt P29274)
Construct: expressed in transfected cells; host or cells: CHO cells, semliki forest virus expression system; washed membrane pellet used
Sequence (P29274 whole entry): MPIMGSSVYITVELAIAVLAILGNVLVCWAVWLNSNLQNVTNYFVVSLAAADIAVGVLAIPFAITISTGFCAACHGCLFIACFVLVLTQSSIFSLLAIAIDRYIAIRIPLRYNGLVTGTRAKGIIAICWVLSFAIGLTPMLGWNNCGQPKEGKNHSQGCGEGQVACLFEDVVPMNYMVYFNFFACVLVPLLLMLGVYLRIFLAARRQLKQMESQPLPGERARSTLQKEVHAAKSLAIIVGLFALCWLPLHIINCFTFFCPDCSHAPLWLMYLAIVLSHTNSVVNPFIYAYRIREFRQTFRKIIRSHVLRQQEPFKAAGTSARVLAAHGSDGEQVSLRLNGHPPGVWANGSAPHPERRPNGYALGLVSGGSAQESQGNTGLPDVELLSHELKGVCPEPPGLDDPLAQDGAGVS
Assay Method Text: [3H]-SCH-58261 binding assay, human adenosine A2A receptor (CHO cell membranes, SPA)
Readout Label: pKi
In simple prose, pKi is minus the logarithm base ten of a concentration in moles per litre.

Form: molecule = "COc1ccc(N2CCOCC2)c2sc(NC(=O)N3[C@@H]4CC[C@H]3C[C@@H](O)C4)nc12" ; pKi = 8.10

* * *

Tgt: human adenosine A2A receptor (Homo sapiens)
Construct: expressed in transfected cells; host or cells: CHO cells, semliki forest virus expression system; washed membrane pellet used
Assay Method Text: [3H]-SCH-58261 binding assay, human adenosine A2A receptor (CHO cell membranes, SPA)
Conditions: displacement of [3H]-SCH-58261 (1 nM); recombinant receptor in CHO membranes; Ki by Cheng-Prussoff equation; read-out: hA2 (pKi) (converted)
Entries annotated with measured Ki
Answer in nM, number only, no unit symbol.

>>> obs_value("COc1ccc(N2CCOCC2)c2sc(NC(=O)N(C)[C@H]3CC[C@@H](F)CC3)nc12 [Example 23]")
7.94

Form: compound = COc1ccc(N2CCOCC2)c2sc(NC(=O)N3CCC(CO)(Cc4ccccc4)CC3)nc12 [Example 8] ; Ki = 3.98

Form: compound = COc1ccc(N2CCOCC2)c2sc(NC(=O)N3CCC([C@@H](C)O)CC3)nc12 [Example 14] ; Ki = 7.94

Form: compound = COc1ccc(N2CCOCC2)c2sc(NC(=O)N3CCC4(CCCCC4)CC3)nc12 [Example 10] ; Ki = 10

Form: compound = COc1ccc(N2CCOCC2)c2sc(NC(=O)N3CCC4(CCN(C)C4=O)CC3)nc12 [Example 4] ; Ki = 6.31

Form: compound = COc1ccc(N2CCOCC2)c2sc(NC(=O)N3CCC4(CCCO4)CC3)nc12 [Example 13] ; Ki = 2.51

Form: compound = COc1ccc(N2CCOCC2)c2sc(NC(=O)N(C)[C@H]3CC[C@H](O)CC3)nc12 [Example 27] ; Ki = 12.6

Form: compound = COc1ccc(N2CCOCC2)c2sc(NC(=O)N3CCC4(CCCC4)CC3)nc12 [Example 11] ; Ki = 6.31

Form: compound = COc1ccc(N2CCOCC2)c2sc(NC(=O)N(C)C3CCOCC3)nc12 [Example 34] ; Ki = 15.8

Form: compound = COc1ccc(N2CCOCC2)c2sc(NC(=O)N(C)C3CCCCCC3)nc12 [Example 35] ; Ki = 12.6

Form: compound = COc1ccc(N2CCOCC2)c2sc(NC(=O)N(C)C3CCCCC3)nc12 [Example 9] ; Ki = 12.6

Form: compound = COc1ccc(N2CCOCC2)c2sc(NC(=O)N3C[C@@H]4C[C@H]3CO4)nc12 [Example 1] ; Ki = 3.16

Form: compound = COc1ccc(N2CCOCC2)c2sc(NC(=O)N3CC4CCC3CC4)nc12 [Example 12] ; Ki = 2.51

Form: compound = COc1ccc(N2CCOCC2)c2sc(NC(=O)N3C[C@@H]4CC[C@H]3C4)nc12 [Example 33] ; Ki = 5.01

Form: compound = COc1ccc(N2CCOCC2)c2sc(NC(=O)N(C)[C@H]3CC[C@@H](OC)CC3)nc12 [Example 25] ; Ki = 20

Form: compound = COc1ccc(N2CCOCC2)c2sc(NC(=O)N3CC4CCC3CO4)nc12 (stereo not drawn) [Example 30] ; Ki = 5.01

Entry source: patent US7019001B2
